System: MLK3;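 also: KINOMEscan scanMAX binding as percent activity remaining versus control; lower means stronger binding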
Construct: gene MAP3K11
MEASUREMENT_SETUP: Compound Concentration (nM):1000
Reported Percent Control values for a set of compounds
Report the figure in % without appending any unit label.

{"COMPOUND": "NS(=O)(=O)c1ccc(N/N=C2\\C(=O)Nc3ccc(-c4cnco4)cc32)cc1 [GW276655]", "Percent Control / %": 96}

Field Percent Control (entry COc1cc(C=NNc2ncnc3c2cnn3-c2ccccc2)ccc1O [GW513184X] ) reads 50

Field Percent Control (entry NS(=O)(=O)c1ccc(N/N=C2\C(=O)Nc3ccc(C(=O)NCc4ccncc4)cc32)cc1 [GW300657X] ) reads 100

Field Percent Control (entry O=C1Nc2ccc(C(=O)c3ccco3)cc2C1=Cc1cc(Cl)c(O)c(Cl)c1 [GW406108X] ) reads 95
